assay: In vitro inhibitory activity against Ornithine Decarboxylase (ODC) isolated from the livers of thioactamide treated rats.; format: functional, tissue-based, Rattus norvegicus, Liver
measurement name: Ki (µM)
Write the value in µM as a bare number.

# Ki (compound: CC(CN)C(C)CN (mixture of isomers) ) is 1000

###

biological target: Ornithine decarboxylase (Rattus norvegicus) (UniProt P09057); assay: In vivo inhibitory activity against Ornithine Decarboxylase (ODC) in rats; type: functional, organism-based; parameters: concentration or dose not given beside the values
Sequence (P09057 whole entry): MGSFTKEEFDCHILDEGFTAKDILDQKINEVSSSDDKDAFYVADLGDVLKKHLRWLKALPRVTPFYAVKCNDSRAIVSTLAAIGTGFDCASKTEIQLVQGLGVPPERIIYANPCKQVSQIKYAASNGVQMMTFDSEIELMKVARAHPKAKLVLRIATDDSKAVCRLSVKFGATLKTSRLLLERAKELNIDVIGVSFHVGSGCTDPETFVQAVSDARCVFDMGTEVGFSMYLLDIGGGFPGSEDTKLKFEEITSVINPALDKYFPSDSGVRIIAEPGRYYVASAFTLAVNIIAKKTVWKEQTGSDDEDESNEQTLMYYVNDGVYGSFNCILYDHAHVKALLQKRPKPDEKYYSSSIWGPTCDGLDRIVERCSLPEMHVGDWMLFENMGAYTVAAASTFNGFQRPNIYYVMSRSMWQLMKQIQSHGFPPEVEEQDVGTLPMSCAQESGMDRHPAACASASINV
measurement name: Inhibition (%)
Write the value in % as a bare number.

- CC(N)CCC(C)N (single isomer, unassigned; (+)): 98
- NCCCCN: 55
- CNCCCCNC: 30
- CC(N)CC(C)CN (mixture of isomers): 76
- CC(N)CCC(C)N (single isomer, unassigned; (-)): 97
- CC(N)C(C)CCN (mixture of isomers): 70
- CN(C)CCCCN: 60
- CC(N)CCC(C)N (centres undefined): 93

// next item, Inhibition requested
# Inhibition (compound: CC(N)CCC(C)N (racemic) ) is 96
